- ASSAY_TARGET: Acetylcholinesterase (Electrophorus electricus, UniProt O42275)
- Sequence (O42275 whole entry): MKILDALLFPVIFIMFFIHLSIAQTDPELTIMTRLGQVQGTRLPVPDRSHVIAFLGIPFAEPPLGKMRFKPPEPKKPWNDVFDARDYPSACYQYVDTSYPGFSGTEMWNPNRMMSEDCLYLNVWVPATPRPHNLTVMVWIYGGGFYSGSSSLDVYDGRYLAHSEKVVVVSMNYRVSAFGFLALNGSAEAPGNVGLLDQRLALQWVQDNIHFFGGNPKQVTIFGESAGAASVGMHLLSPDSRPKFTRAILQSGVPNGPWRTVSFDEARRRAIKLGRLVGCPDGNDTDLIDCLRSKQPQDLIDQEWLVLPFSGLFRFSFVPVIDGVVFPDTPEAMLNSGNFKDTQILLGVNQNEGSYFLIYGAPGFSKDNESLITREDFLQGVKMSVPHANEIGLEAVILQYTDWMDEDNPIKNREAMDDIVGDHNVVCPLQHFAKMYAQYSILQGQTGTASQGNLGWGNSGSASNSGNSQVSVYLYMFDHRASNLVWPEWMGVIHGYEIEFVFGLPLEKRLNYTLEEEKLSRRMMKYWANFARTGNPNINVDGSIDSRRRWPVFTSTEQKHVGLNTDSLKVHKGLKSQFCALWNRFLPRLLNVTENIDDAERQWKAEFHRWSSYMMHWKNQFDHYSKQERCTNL
MEASUREMENT_NAME: pIC50
Give only the number. pIC50 is defined as minus log10 of concentration in molar units.

The following compounds have reported results that may help.
COC(=O)c1cc2c(N)c3c(nc2nc1C)CCCCCC3
6.60
COC(=O)c1cc2c(N)c3c(nc2nc1C)CCCCC3
6.44
CCOC(=O)c1cc2c(N)c3c(nc2nc1C)CCCCCC3
6.40
COC(=O)c1cc2c(N)c3c(nc2nc1C)CCC3
6.92
CCOC(=O)c1c(C)nc2nc3c(c(N)c2c1-c1ccccc1)CCCC3
6.10
COC(=O)c1cc2c(N)c3c(nc2nc1C)CCCC3
7.03
CCOC(=O)c1cc2c(N)c3c(nc2nc1C)CCCCC3
6.51

Consider now this further compound.
Bench note, Acetylcholinesterase (Electrophorus electricus, UniProt O42275): entry "CCOC(=O)c1cc2c(N)c3c(nc2nc1C)CCC3" , its pIC50 = 6.46

----------
- ASSAY_TARGET: UniProt P22303
MEASUREMENT_NAME: Ki

Bench note, UniProt P22303: entry "CCOC(=O)c1cc2c(N)c3c(nc2nc1C)CCCC3" , its Ki = 24 nM

----------
# Activity per record follows
- Test system: SH-SY5Y
- ASSAY_PROTOCOL: Cytotoxicity against human SH-SY5Y cells assessed as LDH release at 1 uM after 24 hrs by spectrophotometry (reference value: 17.7%)
- Format: cell-based
The reply should contain only the number, in %.

The following molecules have reported results that may help.
COC(=O)c1cc2c(N)c3c(nc2nc1C)CCC3
22.1
COC(=O)c1cc2c(N)c3c(nc2nc1C)CCCC3
11.6
CCOC(=O)c1cc2c(N)c3c(nc2nc1C)CCCCC3
19.9
COC(=O)c1cc2c(N)c3c(nc2nc1C)CCCCC3
20.4
COC(=O)c1cc2c(N)c3c(nc2nc1C)CCCCCC3
21.6

Bench note, SH-SY5Y: entry "CCOC(=O)c1cc2c(N)c3c(nc2nc1C)CCCCCC3" , its Activity = 12.7

Bench note, SH-SY5Y: entry "CCOC(=O)c1cc2c(N)c3c(nc2nc1C)CCCC3" , its Activity = 20.9

Bench note, SH-SY5Y: entry "CCOC(=O)c1cc2c(N)c3c(nc2nc1C)CCC3" , its Activity = 12.3

----------
Consider the following IC50 values measured on Acetylcholinesterase (Homo sapiens, UniProt P22303).
Sequence (P22303 whole entry): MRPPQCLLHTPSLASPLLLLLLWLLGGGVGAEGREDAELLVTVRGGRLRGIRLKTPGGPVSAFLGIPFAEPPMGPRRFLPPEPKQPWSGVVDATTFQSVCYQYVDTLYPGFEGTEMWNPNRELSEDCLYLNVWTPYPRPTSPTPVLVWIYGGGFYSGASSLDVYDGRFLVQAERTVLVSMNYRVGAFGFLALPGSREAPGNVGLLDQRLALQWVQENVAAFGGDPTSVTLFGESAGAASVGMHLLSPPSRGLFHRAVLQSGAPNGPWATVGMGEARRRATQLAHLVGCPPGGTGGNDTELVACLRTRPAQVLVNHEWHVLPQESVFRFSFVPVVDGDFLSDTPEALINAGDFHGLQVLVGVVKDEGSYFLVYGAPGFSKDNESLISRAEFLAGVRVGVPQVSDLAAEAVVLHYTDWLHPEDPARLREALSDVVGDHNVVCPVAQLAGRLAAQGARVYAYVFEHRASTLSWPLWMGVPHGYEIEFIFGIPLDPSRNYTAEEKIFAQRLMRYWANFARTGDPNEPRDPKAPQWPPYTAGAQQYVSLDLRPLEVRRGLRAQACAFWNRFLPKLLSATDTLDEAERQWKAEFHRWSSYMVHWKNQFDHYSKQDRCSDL
The reply should contain only the number, in nM.

CCOC(=O)c1cc2c(N)c3c(nc2nc1C)CCC3
2100
CCOC(=O)c1cc2c(N)c3c(nc2nc1C)CCCCCC3
1800
COC(=O)c1cc2c(N)c3c(nc2nc1C)CCCCC3
2000
COC(=O)c1cc2c(N)c3c(nc2nc1C)CCC3
1900
COC(=O)c1cc2c(N)c3c(nc2nc1C)CCCC3
1000
COC(=O)c1cc2c(N)c3c(nc2nc1C)CCCCCC3
1800

Bench note, Acetylcholinesterase (Homo sapiens, UniProt P22303): entry "CCOC(=O)c1cc2c(N)c3c(nc2nc1C)CCCCC3" , its IC50 = 2000

----------
# Activity per record follows
- System: SH-SY5Y
- ASSAY_PROTOCOL: Neuroprotective activity in human SH-SY5Y cells assessed as protection against rotenone/oligomycin A-induced cell death at 1 uM after 24 hrs by LDH release assay
- Assay type: functional
The reply should contain only the number, in %.

COC(=O)c1cc2c(N)c3c(nc2nc1C)CCCCCC3
42.3
COC(=O)c1cc2c(N)c3c(nc2nc1C)CCCC3
25.8
CCOC(=O)c1cc2c(N)c3c(nc2nc1C)CCCC3
48.4
CC(=O)N[C@@H](CS)C(=O)O
33.4
COc1ccc2[nH]cc(CCNC(C)=O)c2c1
33.8

Please fill in: Activity reported for "COC(=O)c1cc2c(N)c3c(nc2nc1C)CCCCC3" = 36.1

Please fill in: Activity reported for "CCOC(=O)c1cc2c(N)c3c(nc2nc1C)CCCCCC3" = 32.6

Please fill in: Activity reported for "CCOC(=O)c1c(C)nc2nc3c(c(N)c2c1-c1ccccc1)CCCC3" = 26.8

Please fill in: Activity reported for "CCOC(=O)c1cc2c(N)c3c(nc2nc1C)CCC3" = 28.7

Please fill in: Activity reported for "COC(=O)c1cc2c(N)c3c(nc2nc1C)CCC3" = 37.5

Please fill in: Activity reported for "CCOC(=O)c1cc2c(N)c3c(nc2nc1C)CCCCC3" = 31.1
